Target: T1, soluble EpoR (EposR) (human, UniProt P19235 25-250)
T1 chain: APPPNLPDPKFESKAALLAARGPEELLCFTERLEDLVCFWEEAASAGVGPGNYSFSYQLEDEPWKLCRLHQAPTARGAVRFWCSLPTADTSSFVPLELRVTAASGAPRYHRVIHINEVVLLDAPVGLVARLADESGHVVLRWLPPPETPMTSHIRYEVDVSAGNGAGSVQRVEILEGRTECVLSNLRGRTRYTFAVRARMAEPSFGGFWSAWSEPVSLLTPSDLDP
Assay: yeast display flow cytometry
metric: Kd (nM)
Your answer should be a plain number; it is taken to be in nM.

{"columns": ["binder", "Kd, nM"],
 "data": [
  ["Ab12 scFv construct with linker 41 in the tether position and linker 34 in the scFv linker position, displayed on yeast (scFv) scFv: GENKVEYAPALMALSQVQLQESGPGLVKPSETLSLTCTVSGASISSYYWSWIRQPPGKGLEWIGYIYYSGSTNYNPSLKSRVTISVDTSKNQFSLKLRSVTAADTAVYYCARERLGIGDYWGQGTLVTVSSGHEAAAVMQVQYPASDIQLTQSPSSLSASVGDRVTITCRASQGIRNDLGWYQQKPGKAPKRLIYAASSLQSGVPSRFSGSGSGTEFTLTISSLQPEDFATYYCLQHNTYPPTFGQGTKVEIK", 8.5],
  ["Ab12 41/40 scFv (linker 41 as tether, linker 40 as scFv linker), displayed on yeast (scFv) scFv: GENKVEYAPALMALSQVQLQESGPGLVKPSETLSLTCTVSGASISSYYWSWIRQPPGKGLEWIGYIYYSGSTNYNPSLKSRVTISVDTSKNQFSLKLRSVTAADTAVYYCARERLGIGDYWGQGTLVTVSSGPAKELTPLKEAKVSDIQLTQSPSSLSASVGDRVTITCRASQGIRNDLGWYQQKPGKAPKRLIYAASSLQSGVPSRFSGSGSGTEFTLTISSLQPEDFATYYCLQHNTYPPTFGQGTKVEIK", 4],
  ["Ab12 scFv construct with Gly/Ser linker (WT) in both the tether and scFv linker positions, displayed on yeast (scFv) scFv: GGGGSGGGGSGGGGSQVQLQESGPGLVKPSETLSLTCTVSGASISSYYWSWIRQPPGKGLEWIGYIYYSGSTNYNPSLKSRVTISVDTSKNQFSLKLRSVTAADTAVYYCARERLGIGDYWGQGTLVTVSSGGGGSGGGGSGGGGSDIQLTQSPSSLSASVGDRVTITCRASQGIRNDLGWYQQKPGKAPKRLIYAASSLQSGVPSRFSGSGSGTEFTLTISSLQPEDFATYYCLQHNTYPPTFGQGTKVEIK", 9]
]}

Now look at this entry.
Entry under test: Ab12 scFv construct with linker 41 in the tether position and the Gly/Ser linker (WT) in the scFv linker position, displayed on yeast (scFv) scFv: GENKVEYAPALMALSQVQLQESGPGLVKPSETLSLTCTVSGASISSYYWSWIRQPPGKGLEWIGYIYYSGSTNYNPSLKSRVTISVDTSKNQFSLKLRSVTAADTAVYYCARERLGIGDYWGQGTLVTVSSGGGGSGGGGSGGGGSDIQLTQSPSSLSASVGDRVTITCRASQGIRNDLGWYQQKPGKAPKRLIYAASSLQSGVPSRFSGSGSGTEFTLTISSLQPEDFATYYCLQHNTYPPTFGQGTKVEIK . Its Kd was 5
